Reference for the values: PubChem BioAssay AID1159580

METHOD: chemical genetic growth profiling, strain panel (AID 1159580);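 further: tested at 20 µM; growth read once vehicle control cultures reached saturation at 30 °C; 1 = growth at the plate median or of vehicle wells; lower values mean less growth of the strain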
REPORTED CONDITIONS: S. cerevisiae deletion strains, growth OD, locus YGL078C, strain dbp3, hits give low values
Hit rate of the full screen: of about 5,500 compounds, about 2,000 (36%) were called active. Not shown: some 18% with an inconclusive outcome. This is one part of the list.
Decision: normalized growth beneath 1 gives Condition met; normalized growth meeting or exceeding 1 gives Condition not met.

INSERT INTO results (compound, class_assignment) VALUES
  ('C#C[C@]1(O)CCC2C3CCC4=Cc5oncc5C[C@]4(C)C3CC[C@@]21C (stereo partly drawn)', 'Condition met'),
  ('CCOc1cccc(C(=O)c2ccc(O)c(O)c2O)c1', 'Condition met'),
  ('COC1(C)CCC2OC2(C)CCC2C1CC2(C)C (stereo not drawn)', 'Condition not met'),
  ('CC(=O)[O][Hg][c]1ccccc1', 'Condition met');

###

METHOD: chemical genetic growth profiling, strain panel (AID 1159580)
REPORTED CONDITIONS: S. cerevisiae deletion strains, growth OD, locus YGR229C, strain SMI1, hits give low values
Out of some 5,500 compounds screened, about 2,000 (36%) were called active. About 18% were inconclusive and are not listed. The list shows a part of the results.
The compounds listed here are annotated with their normalized growth.
MEASURED ATTRIBUTE: normalized growth

INSERT INTO measurements (compound, numeric_readout) VALUES
  ('CCOC([O-])=Nc1c[n+](N2CCOCC2)no1', 1.02),
  ('NC(=O)NO', 0.997),
  ('Cc1onc(-c2ccccc2Cl)c1C(=O)N[C@@H]1C(=O)N2[C@@H]1SC(C)(C)[C@@H]2C(=O)O', 1.02),
  ('CC1=CC(=O)C2=C(C)CC(O)C3C(C)C(=O)OC3C12 (configuration not stated)', 1.01),
  ('N#Cc1ccc(Oc2ccc(Cl)cc2)nc1', 0.987),
  ('O=C(COC(=O)c1ccccc1C(=O)c1ccccc1)c1ccccc1', 0.993),
  ('CC(=O)[C@@]1(O)CC[C@H]2[C@@H]3CCC4=CC(=O)CC[C@]4(C)[C@H]3CC[C@@]21C', 1.01);

###

METHOD: chemical genetic growth profiling, strain panel (AID 1159580)
REPORTED CONDITIONS: S. cerevisiae deletion strains, growth OD, locus YKL160W, strain elf1, hits give low values
Out of some 5,500 compounds screened, about 2,000 (36%) were called active. Another 18% or so got no clear call; they are omitted. This is one part of the list.
The molecules listed here are annotated with their normalized growth.
MEASURED ATTRIBUTE: normalized growth

INSERT INTO measurements (molecule, measured_attribute, numeric_readout) VALUES
  ('CC1=CC2C(C(C)C)CCC(C)(O)C2CC1 (stereo not drawn)', 'normalized growth', 0.968),
  ('CC1(C)C=Cc2cc3ccc(=O)oc3cc2O1', 'normalized growth', 0.909),
  ('C=C(C)[C@H]1Cc2c(ccc3c2O[C@@H]2COc4cc(OC)c(OC)cc4[C@@H]2C3=O)O1', 'normalized growth', 0.95);

###

The molecules listed here are annotated with their normalized growth.
METHOD: chemical genetic growth profiling, strain panel (AID 1159580);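 further: tested at 20 µM; growth read once vehicle control cultures reached saturation at 30 °C; 1 = growth at the plate median or of vehicle wells; lower values mean less growth of the strain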
REPORTED CONDITIONS: S. cerevisiae deletion strains, growth OD, locus YMR223W, strain ubp8, hits give low values
About 2,000 (36%) of roughly 5,500 compounds were called active. Another 18% or so got no clear call; they are omitted. The list shows a part of the results.
MEASURED ATTRIBUTE: normalized growth

INSERT INTO results (molecule, measured_attribute, result) VALUES
  ('Cc1c(NC(=O)c2cccnc2)c(=O)n(-c2ccccc2)n1C', 'normalized growth', '1.02 (inactive)'),
  ('COc1cc(-c2coc3cc(O[C@@H]4O[C@H](CO)[C@@H](O)[C@H](O)[C@H]4O)c(OC)c(O)c3c2=O)cc(O)c1OC', 'normalized growth', '1 (inactive)'),
  ('CCCCCCCCCCCCCCCCCCOCC(O)CO (centres undefined)', 'normalized growth', '1.01 (inactive)'),
  ('O=C(CCBr)N1CCN(C(=O)CCBr)CC1', 'normalized growth', '0.999 (inactive)');

###

METHOD: chemical genetic growth profiling, strain panel (AID 1159580);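 further: tested at 20 µM; growth read once vehicle control cultures reached saturation at 30 °C; 1 = growth at the plate median or of vehicle wells; lower values mean less growth of the strain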
REPORTED CONDITIONS: S. cerevisiae deletion strains, growth OD, locus YDL101C, strain DUN1
Hit rate of the full screen: of about 5,500 compounds, about 2,000 (36%) were called active. Roughly 18% stayed inconclusive and do not appear here. No stated cut-off is given here; in the data, active means normalized growth mostly below about 0.91 (no sharp cut-off); inconclusive means no clear call, values can overlap the other calls; inactive means mostly above about 0.92. The list shows a part of the results. *1 amine or outer side, *2 acyl side, *3 side chain or, on linkers, in order; H or OH if unused. Where a SMILES comes first, the peptide text is derived from it. Bridges are numbered along the chain shown (N, C = ends). Side-chain parts run from the residue outwards. [ ]: non-standard residue; d: D form. The star is where a group is joined. ξ: configuration not given here. ΔAla(E,3-NHCONH2) = NC(=O)N/C=C(/N)C(=O)O; X2 = NC1=NCCC(C(N[*:1])C(=O)[*:2])N1; X1 = CCC(C)C(N)C1=NC(C(=O)*)CS1; ξβ3hOrn = NCCCC(N)CC(=O)*; Orn = NCCC[CH](N)C(=O)O; Dap = NC[CH](N)C(=O)O
Outcome codes: active, inactive

INSERT INTO assay_data (compound, class_assignment) VALUES
  ('N#Cc1nccnc1Sc1ccc(Cl)cc1', 'inactive'),
  ('CC(=O)NC(=O)/C(C#N)=C/N1CCN(Cc2ccccc2)CC1', 'inactive'),
  ('O=c1cc(C(F)(F)F)[nH]c2c(Cl)cccc12', 'active'),
  ('O=C(O)c1cc(=O)c2c(Cl)cc(Cl)cc2[nH]1', 'inactive'),
  ('NCCCC(N)CC(=O)NCC1NC(=O)C(CO)NC(=O)C(N)CNC(=O)C(C2CCN=C(N)N2)NC(=O)/C(=C\NC(N)=O)NC1=O (stereo not drawn) (H-[Dap]S[Dap](ξβ3hOrn)[ΔAla(E,3-NHCONH2)][X2]; lactam 1-C; configuration not given here)', 'inactive'),
  ('COc1cc2c(cc1OC)[C@@H]1C(=O)c3ccc4c(c3O[C@@H]1CO2)CC(C(C)C)O4 (some centres not stated)', 'inactive'),
  ('CCC(C)C(N)C1=NC(C(=O)NC(CC(C)C)C(=O)NC(CCC(=O)O)C(=O)NC(C(=O)NCCCCC2NC(=O)C(CC(N)=O)NC(=O)C(CC(=O)O)NC(=O)C(Cc3cnc[nH]3)NC(=O)C(Cc3ccccc3)NC(=O)C(C(C)CC)NC(=O)C(CCCN)NC2=O)C(C)CC)CS1 (stereo not drawn) (cyclo(DNK([Ile-Glu-Leu-X1])[Orn]IFH); configuration not given here)', 'inactive'),
  ('O=C(Nc1cccnc1)c1cc2c(s1)-c1ccccc1CC2', 'inactive'),
  ('C=C(C)[C@H]1Cc2c(ccc3c2O[C@@H]2COc4cc(OC)c(OC)cc4[C@@H]2C3=O)O1', 'inactive'),
  ('COc1cccc(NC(N)=S)c1', 'inactive'),
  ('Cc1cc(C(C)(C)C)c(O)c(C)c1CC1=NCCN1', 'inactive'),
  ('O=C(c1cc2c(s1)-c1ccccc1CC2)N1CCN(Cc2ccccc2)CC1', 'inactive');

###

METHOD: chemical genetic growth profiling, strain panel (AID 1159580);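 further: tested at 20 µM; growth read once vehicle control cultures reached saturation at 30 °C; 1 = growth at the plate median or of vehicle wells; lower values mean less growth of the strain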
REPORTED CONDITIONS: S. cerevisiae deletion strains, growth OD, locus YLR357W, strain rsc2
Hit rate of the full screen: of about 5,500 compounds, about 2,000 (36%) were called active. Roughly 18% stayed inconclusive and do not appear here. No stated cut-off is given here; in the data, active means normalized growth mostly below about 0.91 (no sharp cut-off); inconclusive means no clear call, values can overlap the other calls; inactive means mostly above about 0.92. The list shows a part of the results.
Outcome codes: true (1) for active, false (0) for inactive

INSERT INTO assay_data (molecule, class_assignment) VALUES
  ('CN1CCN(CC(=O)N2c3ccccc3C(=O)Nc3cccnc32)CC1', 'false (0)'),
  ('CC(=O)[O][Hg][c]1ccccc1', 'true (1)'),
  ('CC(=O)Oc1cc2c(c(C)c1OC(C)=O)CC1OC13C2(C)CCC1(C)C2CC(C)(C(=O)O)CCC2(C)CCC13C (stereo not drawn)', 'false (0)'),
  ('COc1c2ccoc2cc2oc(C)cc(=O)c12', 'false (0)'),
  ('O=c1oc2c(O)c(O)cc3c(=O)oc4c(O)c(O)cc1c4c23', 'true (1)'),
  ('COC1(C)CCC2OC2(C)CCC2C1CC2(C)C (stereo not drawn)', 'false (0)'),
  ('CCOc1ccc(C(=O)c2ccc(OC)c(O)c2O)cc1', 'false (0)'),
  ('COc1ccc(C2C(=O)c3ccccc3C2=O)cc1', 'false (0)'),
  ('O=c1c(O)c(-c2ccc(O)c(O)c2)oc2cc(O)ccc12', 'false (0)'),
  ('Cc1c(NC(=O)c2cccnc2)c(=O)n(-c2ccccc2)n1C', 'false (0)'),
  ('COc1cc(NS(=O)(=O)c2ccc(N)cc2)ncn1', 'false (0)'),
  ('CC1=C(O)C(=O)C=C2C1=CC=C1[C@@]2(C)CC[C@@]2(C)[C@@H]3C[C@](C)(C(=O)O)CC[C@]3(C)CC[C@]12C', 'true (1)'),
  ('CC(NCCC(c1ccccc1)c1ccccc1)c1ccccc1 (stereo not drawn)', 'false (0)'),
  ('CNS(=O)(=O)c1ccc(NC(=O)c2ccccc2C(=O)O)cc1', 'false (0)'),
  ('COc1cc2cc3c4cc(OC)c(OC)cc4cc[n+]3c(C)c2cc1OC', 'false (0)'),
  ('COC(=O)C[C@H]1C(C)(C)[C@@H](O)[C@@H]2CC3=C4C=C(OC)O[C@@H](c5ccoc5)[C@]4(C)CCC3[C@@]1(C)C2=O (stereo partly drawn)', 'false (0)'),
  ('COc1ccc([C@H]2COc3c(ccc(O)c3OC)C2)c(OC)c1O', 'false (0)'),
  ('CCN(CC)CCNC(=O)c1cc(Cl)c(N)cc1OC', 'false (0)'),
  ('COc1c2occc2c(OC)c2c(=O)cc(C)oc12', 'false (0)'),
  ('O=C(CCBr)N1CCN(C(=O)CCBr)CC1', 'false (0)'),
  ('COc1cc(-c2oc3cc(O)ccc3c(=O)c2O)ccc1O', 'true (1)'),
  ('CC1(C)C=Cc2cc3ccc(=O)oc3cc2O1', 'false (0)'),
  ('C=C(C)[C@H]1Cc2c(ccc3c2O[C@@H]2COc4cc(OC)c(OC)cc4[C@@H]2C3=O)O1', 'false (0)'),
  ('COc1cc(-c2coc3cc(O[C@@H]4O[C@H](CO)[C@@H](O)[C@H](O)[C@H]4O)c(OC)c(O)c3c2=O)cc(O)c1OC', 'false (0)'),
  ('CNCC[C@@H](Oc1ccccc1)c1ccccc1', 'false (0)'),
  ('CCOc1ccc(C(=O)c2cc(O)c(OC)c(OC)c2O)cc1', 'false (0)'),
  ('O=C(NC1CCCCC1)NC1CCCCC1', 'false (0)'),
  ('CCC1(CC)C(=O)C=CNC1=O', 'false (0)'),
  ('COc1ccc(-c2oc3ccccc3c(=O)c2O)cc1OC', 'true (1)'),
  ('COc1cc2c(cc1OC)[C@@H]1C(=O)c3ccc4c(c3O[C@@H]1CO2)CC(C(C)C)O4 (stereo partly drawn)', 'false (0)'),
  ('CCc1cccc2c3c([nH]c12)C(CC)(CC(=O)O)OCC3 (stereo not drawn)', 'false (0)'),
  ('CC(=O)Oc1ccccc1C(=O)O', 'false (0)'),
  ('CCNc1nc(Cl)nc(NCC)n1', 'false (0)'),
  ('CC(=O)OC[C@H]1O[C@@H](Oc2cc(OC(C)=O)c3c(=O)cc(-c4ccc(OC(C)=O)cc4)oc3c2)[C@H](OC(C)=O)[C@@H](OC(C)=O)[C@@H]1OC(C)=O', 'false (0)'),
  ('NCCNCCNCCN', 'false (0)'),
  ('O=C(CCc1ccc(O)cc1)c1c(O)cc(O)cc1O[C@@H]1O[C@H](CO)[C@@H](O)[C@H](O)[C@H]1O', 'false (0)'),
  ('O=C1c2ccccc2C(=O)C1c1ccccc1', 'false (0)'),
  ('CC(=O)[C@@]1(O)CCC2C3CCC4=CC(=O)CC[C@]4(C)C3CC[C@@]21C (stereo partly drawn)', 'false (0)');
